Tested on: Mus musculus
Assay: Inhibition of phenylquinone induced writhing in mice following 50 mg/kg p.o.
Assay type: functional
Conditions: route oral
Consider the following partition of reported inhibition in vivo at 50 mg/kg into named classes: lower band (below 30%), central band (30% to below 80%), upper band (80% or more)

Lookup: Which bin should I file CC(CCn1c(=O)oc2ncccc21)N1CCN(c2ccc(F)cc2)CC1 (stereo unspecified) under?
Found: central band

Lookup: Which bin should I file O=c1oc2ncccc2n1CCN1CCN(c2ccc(F)cc2)CC1 under?
Found: upper band

Lookup: Which bin should I file O=c1oc2ncccc2n1CCCCCCN1CCN(c2ccc(F)cc2)CC1 under?
Found: upper band

Lookup: Which bin should I file O=c1oc2ncccc2n1CCN1CCN(c2cccc(C(F)(F)F)c2)CC1 under?
Found: lower band

Lookup: Which bin should I file COc1ccccc1N1CCN(CCn2c(=O)oc3ncccc32)CC1 under?
Found: central band

Lookup: Which bin should I file O=c1oc2ncccc2n1CCCN1CCN(c2ccc(F)cc2)CC1 under?
Found: upper band

Lookup: Which bin should I file O=c1oc2ncccc2n1CCCCCN1CCN(c2ccc(F)cc2)CC1 under?
Found: upper band

Lookup: Which bin should I file O=c1oc2ncccc2n1CCCCN1CCC(c2ccccc2)CC1 under?
Found: lower band

Lookup: Which bin should I file O=c1oc2ncccc2n1CCN1CCN(c2cccc3ccccc23)CC1 under?
Found: central band

Lookup: Which bin should I file O=c1oc2ncccc2n1CCCN1CCN(Cc2ccccc2)CC1 under?
Found: lower band

Lookup: Which bin should I file O=c1oc2ncccc2n1CCN1CCN(Cc2ccccc2)CC1 under?
Found: central band

* * *

Test system: Mus musculus
Test: Inhibition of phenylquinone induced writhing in mice following 50 mg/kg p.o.
Assay type: functional
Settings: route oral
Give measured inhibition in vivo at 50 mg/kg for each item. Keep answers brief.
// note: answer is a bare numeric in %

Briefly, inhibition in vivo at 50 mg/kg measured for O=C(CCn1c(=O)oc2ncccc21)N1CCN(c2ccc(F)cc2)CC1 : 25

Briefly, inhibition in vivo at 50 mg/kg measured for O=c1oc2ncccc2n1CCCN1CCN(c2ccccc2)CC1 : 98

Briefly, inhibition in vivo at 50 mg/kg measured for O=c1oc2ncccc2n1CCCN1CCOCC1 : 48

Briefly, inhibition in vivo at 50 mg/kg measured for O=c1oc2ncccc2n1CCCN1CCN(c2cccc3ccccc23)CC1 : 44

Briefly, inhibition in vivo at 50 mg/kg measured for O=c1oc2ncccc2n1CCN1CCCC1 : 55

Briefly, inhibition in vivo at 50 mg/kg measured for CC(CN1CCN(c2ccc(F)cc2)CC1)Cn1c(=O)oc2ncccc21 (stereo not given) : 99

Briefly, inhibition in vivo at 50 mg/kg measured for O=c1oc2ncccc2n1CCN1CCC(c2ccccc2)CC1 : 9

Briefly, inhibition in vivo at 50 mg/kg measured for O=c1oc2ncccc2n1CCCCN1CCN(c2ccc(F)cc2)CC1 : 100

Briefly, inhibition in vivo at 50 mg/kg measured for COc1ccc(N2CCN(CCCn3c(=O)oc4ncccc43)CC2)cc1 : 35

Briefly, inhibition in vivo at 50 mg/kg measured for O=c1oc2ncccc2n1CCCCN1CCN(c2ccccc2)CC1 : 91
